# System: Rhizoctonia solani
# method.notes: Antimicrobial activity against Rhizoctonia solani at <200 ppm
# Format: functional, organism-based
Activity calls are given as the source filed them. The calls are words filed in the database; no cut-off is given here.
measure.name: Activity

                                   compound  recorded_result
0  COC(=O)c1cc(O)cc(OC)c1Oc1cc(C)cc(O)c1C(=O)OC [METHYL ASTERRATE]         inactive
1  COC(=O)c1cc(O)cc(OC)c1Oc1cc(C)cc(O)c1C(=O)O         inactive
2  COC(=O)c1cc(O)cc(OC)c1Oc1cc(C)c(Cl)c(O)c1C(=O)OC [METHYL CHLOROASTERRATE]         inactive
3  COC(=O)c1cc(O)cc(OC)c1Oc1c(Cl)c(C)c(Cl)c(O)c1C(=O)OC [METYL DICHLOROASTERRATE]         inactive
4  COC(=O)c1cc(O)cc(OC)c1C(=O)c1c(O)cc(C)cc1O         inactive

Source: ChEMBL document CHEMBL1148102
